binders and their reported Neutralization IC50
molecular target: HIV-1 envelope glycoprotein (gp120) of virus VS001 (HIV-1); assay: cell-based or functional assay
Your answer should be a plain number; it is taken to be in mg/L.

Some solved cases for reference:
INSERT INTO results (binder, unit_text, obs_value) VALUES
  ('2.2.12-1 (antibody, human IgG1, kappa, V domains shown) VH: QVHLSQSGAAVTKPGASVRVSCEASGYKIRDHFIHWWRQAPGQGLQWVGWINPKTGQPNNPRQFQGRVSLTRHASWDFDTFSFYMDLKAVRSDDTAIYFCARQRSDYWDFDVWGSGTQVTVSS VL: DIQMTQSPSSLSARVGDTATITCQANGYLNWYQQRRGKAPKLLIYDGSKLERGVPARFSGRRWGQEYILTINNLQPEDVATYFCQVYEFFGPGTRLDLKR', 'mg/L', 2.1),
  ('3.1.17-1 (antibody, human IgG1, kappa, V domains shown) VH: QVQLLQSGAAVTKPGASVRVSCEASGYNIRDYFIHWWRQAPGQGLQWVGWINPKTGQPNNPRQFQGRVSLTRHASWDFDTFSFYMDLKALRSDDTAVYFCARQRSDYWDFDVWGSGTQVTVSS VL: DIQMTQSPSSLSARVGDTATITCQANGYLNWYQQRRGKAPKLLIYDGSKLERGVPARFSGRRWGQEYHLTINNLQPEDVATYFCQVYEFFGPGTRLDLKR', 'mg/L', 2.21);

Okay, next one:
Reported Neutralization IC50 ( 2.2.9-1 (antibody, human IgG1, kappa, V domains shown) VH: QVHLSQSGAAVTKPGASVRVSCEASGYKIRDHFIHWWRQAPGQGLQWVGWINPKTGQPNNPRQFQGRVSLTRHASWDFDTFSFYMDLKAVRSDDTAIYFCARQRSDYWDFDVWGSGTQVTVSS VL: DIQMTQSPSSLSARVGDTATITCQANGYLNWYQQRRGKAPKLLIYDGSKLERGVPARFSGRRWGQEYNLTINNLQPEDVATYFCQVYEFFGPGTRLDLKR ) = 0.15
